# Tested on: HT-29
# assay-details: Induction of apoptosis in human HT-29 cells at 1.25 uM after 24 hrs by PE annexin V and 7-Aminoactinomycin D staining-based flow cytometry
# Format: functional
recorded-metric: Activity (%)
Give the value in % but do not write % after it.

Problem: // returns reported Activity for input O=C1C(=O)N(Cc2ccc(CN=C=S)cc2)c2c(Br)cc(Br)cc21
Result: 16.38

Problem: // returns reported Activity for input N#C[Se]CCCN1C(=O)C(=O)c2cc(Br)cc(Br)c21
Result: 7.92

Problem: // returns reported Activity for input N#CSCc1ccc(CN2C(=O)C(=O)c3cc(Br)cc(Br)c32)cc1
Result: 11.47

Problem: // returns reported Activity for input O=C1C(=O)N(CCCN=C=S)c2c(Br)cc(Br)cc21
Result: 8.54

* * *

# Species: Bos taurus
# assay-details: Inhibition of bovine brain tubulin polymerization at 10 uM after 1 hrs by fluorescence assay
Where a name gives a salt, the structure may show the parent alone.
recorded-metric: inhibition

Problem: // returns reported inhibition for input O=C1C(=O)N(CCCN=C=S)c2c(Br)cc(Br)cc21
Result: 62%

Problem: // returns reported inhibition for input N#CSCc1ccc(CN2C(=O)C(=O)c3cc(Br)cc(Br)c32)cc1
Result: 71%

Problem: // returns reported inhibition for input O=C1C(=O)N(Cc2ccc(CN=C=S)cc2)c2c(Br)cc(Br)cc21
Result: 77%

Problem: // returns reported inhibition for input N#C[Se]CCCN1C(=O)C(=O)c2cc(Br)cc(Br)c21
Result: 63%

Problem: // returns reported inhibition for input CC[C@]1(O)C[C@@H]2CN(CCc3c([nH]c4ccccc34)[C@@](C(=O)OC)(c3cc4c(cc3OC)N(C)[C@H]3[C@@](O)(C(=O)OC)[C@H](OC(C)=O)[C@]5(CC)C=CCN6CC[C@]43[C@@H]65)C2)C1 [VINBLASTINE SULFATE]
Result: 66%

* * *

# Tested on: HT-29
# assay-details: Induction of apoptosis in human HT-29 cells assessed as early apoptotic cells at 2.5 uM after 24 hrs by PE annexin V and 7-Aminoactinomycin D staining-based flow cytometry (reference value: 1.37%)
# Assay type: functional
Provide the recorded Activity for the entries that follow.
Give the value in % but do not write % after it.

Problem: // returns reported Activity for input O=C1C(=O)N(CCCN=C=S)c2c(Br)cc(Br)cc21
Result: 6.93

Problem: // returns reported Activity for input N#CSCc1ccc(CN2C(=O)C(=O)c3cc(Br)cc(Br)c32)cc1
Result: 10.6

Problem: // returns reported Activity for input N#C[Se]CCCN1C(=O)C(=O)c2cc(Br)cc(Br)c21
Result: 2.25

Problem: // returns reported Activity for input O=C1C(=O)N(Cc2ccc(CN=C=S)cc2)c2c(Br)cc(Br)cc21
Result: 6.78

* * *

# Tested on: HT-29
# assay-details: Induction of apoptosis in human HT-29 cells at 2.5 uM after 24 hrs by PE annexin V and 7-Aminoactinomycin D staining-based flow cytometry
# Type: functional
recorded-metric: Activity (%)
Give the value in % but do not write % after it.

Problem: // returns reported Activity for input O=C1C(=O)N(Cc2ccc(CN=C=S)cc2)c2c(Br)cc(Br)cc21
Result: 36.64

Problem: // returns reported Activity for input N#CSCc1ccc(CN2C(=O)C(=O)c3cc(Br)cc(Br)c32)cc1
Result: 39.46

Problem: // returns reported Activity for input N#C[Se]CCCN1C(=O)C(=O)c2cc(Br)cc(Br)c21
Result: 10.44

Problem: // returns reported Activity for input O=C1C(=O)N(CCCN=C=S)c2c(Br)cc(Br)cc21
Result: 21.23
